# Tested on: CRL-7250
# experimental protocol: Cytotoxic Profiling of Annotated Libraries Using Quantitative High-Throughput Screening (AID 1296008); also: % is scaled to controls: 0 for no effect and ±100 for the full control effect; nearly all actives have a fitted effect of over 60% in size
# condition details: Five cell lines viability, CellTiter-Glo ATP luminescence, 48-72 h; active compounds read low
Results filed as inconclusive are left out.
measured parameter: max response (%)
// units = %; emit number, no label

{"molecule": "COC(=O)[C@H](Cc1ccc([N+](=O)[O-])cc1)NC(=O)c1cccc2ccccc12", "result": -4.16}
{"molecule": "O=C(O)c1ccc(NC(=O)[C@H](CC2CCCC2)n2cnc(C(F)(F)F)c2)nc1", "result": -11.6}
{"molecule": "COc1c2cc(c(O)c1OC)CCCCC(O)CCc1ccc(O)c-2c1 (stereo not drawn)", "result": -1.76}

Ask | # input molecule: CC(C)(O)C1CC=C(C(=O)OC[C@H]2O[C@@H](Oc3cc(C(=O)O)cc(O)c3O)[C@H](O)[C@@H](O)[C@@H]2O)CC1 (stereo partly drawn) ; wanted: its max response
Reply | 1.76

Ask | // query max response value for entry NC(=O)[C@H](Cc1ccccc1)NC(=O)[C@H](CCCN=C(N)N)NC(=O)C12CC3CC(CC(C3)C1)C2
Reply | -2.98

====

# System: JEG-3
# experimental protocol: Primary qHTS to identify gynecologic anti-cancer compounds using libraries of approved drugs and bioactive compounds (AID 1345084); also: % is scaled to controls: 0 for no effect and ±100 for the full control effect; nearly all actives have a fitted effect of over 55% in size
# condition details: Gynecologic cancer cell panel viability, ATPlite luminescence, 48 h; series mostly up to 57.5 µM
# Excerpt: National Center for Advancing Translational Sciences [NCATS] Assay Overview: Chemotherapeutic drug responses vary from cancer to cancer and from patient to patient. […] ATPlite is a luminescence based assay reliant on the conversion of a luciferase substrate to light in the presence of ATP. As a cytotoxic compound will suppress growth and decrease the number of cells, the concentration of ATP will decrease, and less light signal will be detected in the well. […]
Results filed as inconclusive are left out. Active and inactive are the calls of the source. The call rests on the fitted dose curve; in most records, active means well fitted cell-killing curve with a large enough effect; inconclusive means small, poorly fitted or top-dose-only effect, or effect the other way; inactive means flat fitted curve, though single readings scatter.
measured parameter: activity change, negative = cytotoxicity

The following compounds have reported results that may help.
{"compound": "CCC1=C(C)C(=O)C(C)CC12C(=O)CCC2C(=O)O (configuration not stated)", "activity change, negative = cytotoxicity": "inactive"}
{"compound": "O=C1C[C@@]2(C(=O)N1)C(=O)N(Cc1ccc(Br)cc1F)C(=O)c1cccn12", "activity change, negative = cytotoxicity": "inactive"}
{"compound": "O=C(NC1CCN(CC(F)(F)F)CC1)c1ccc(-c2cccc(F)c2)nc1", "activity change, negative = cytotoxicity": "inactive"}
{"compound": "CC1OC(OC2CCC3(C)C(CCC4(C)C3C=CC35OCC6(CCC(C)(C)CC63)CCC45C)C2(C)CO)C(OC2OC(CO)C(O)C(O)C2O)C(O)C1OC1OC(CO)C(O)C(O)C1O (configuration not stated)", "activity change, negative = cytotoxicity": "8.45% [at 11.6 µM] (inactive)"}
{"compound": "COc1c2cc(c(O)c1OC)CCCCC(O)CCc1ccc(O)c-2c1 (configuration not stated)", "activity change, negative = cytotoxicity": "inactive"}

Ask | GET /values?readout=activity change, negative = cytotoxicity&item= COC(=O)C1=CO[C@@H](O[C@@H]2O[C@H](CO)[C@@H](O)[C@H](O)[C@H]2O)[C@@H]2[C@@H](C)[C@@H](OC(=O)/C=C/c3ccccc3)[C@@H](O)[C@H]12
Reply | inactive

Ask | So what does the record say about activity change, negative = cytotoxicity for COC1CC(O[C@H]2CC[C@@]3(C)C(=CC[C@]4(O)C3[C@H](O)[C@@H](O)[C@]3(C)[C@@H]([C@H](C)O)CC[C@@]34O)C2)OC(C)C1OC1CC(OC)C(OC2CC(OC)C(OC3OC(C)C(OC4OC(CO)C(O)C(O)C4O)C(OC)C3O)C(C)O2)C(C)O1 (some centres not stated) ?
Reply | -0.832% [at 11.6 µM] (inactive)
